Just for reference, paper PMC7032160 is where these values come from.

Experiment: Pharmacokinetic study in rats after oral administration of JDR or gemcitabine
Format: in vivo
Settings: male, Wistar, rat, plasma, 50 mg/kg
endpoint: Tmax (h)

* Nc1ccn([C@@H]2O[C@H](CO)[C@@H](O)C2(F)F)c(=O)n1 | 1.5

---

Experiment: Pharmacokinetic study in rats after oral administration of JDR or gemcitabine
Type: in vivo
Settings: male, Wistar, rat, plasma, 50 mg/kg
endpoint: Cmax (ng/mL)

• Nc1ccn([C@@H]2O[C@H](CO)[C@@H](O)C2(F)F)c(=O)n1 [Gemcitabine] = 1180

---

Experiment: Pharmacokinetic study in rats after oral administration of JDR or gemcitabine
Type: in vivo
Conditions: male, Wistar, rat, plasma, 50 mg/kg
endpoint: half-life (h)

* Nc1ccn([C@@H]2O[C@H](CO)[C@@H](O)C2(F)F)c(=O)n1 | 2.61
